- System: HepG2
- Assay comment: Cytotoxicity against human HepG2 cells assessed as reduction in cell viability by CellTiter-Glo assay
- Type: toxicity, cell-based
CC50 by entry:
Metric name: CC50 (nM)

query_smiles=COc1cc2nccc(Oc3ccc(NC(=O)Nc4ccc(CN5CCN(C)CC5)c(C(F)(F)F)c4)c(F)c3)c2cc1OC metric_name=CC50 reading_unit=nM observed=1000
query_smiles=COc1cc2nccc(Oc3ccc(NC(=O)Nc4ccc(CC5CCNCC5)c(C(F)(F)F)c4)c(F)c3)c2cc1OC metric_name=CC50 reading_unit=nM observed=1290
query_smiles=COc1cc2nccc(Oc3ccc(NC(=O)Nc4ccc(C=C5CCNCC5)cc4)c(F)c3)c2cc1OC metric_name=CC50 reading_unit=nM observed=2570
query_smiles=COc1cc2nccc(Oc3ccc(NC(=O)Nc4ccc(OC5CCN(C)CC5)c(C(F)(F)F)c4)c(F)c3)c2cc1OC metric_name=CC50 reading_unit=nM observed=1000
query_smiles=COc1cc2nccc(Oc3ccc(NC(=O)Nc4ccc(CC5CCNCC5)cc4)c(F)c3)c2cc1OC metric_name=CC50 reading_unit=nM observed=4390
